Assay: folding enthalpy; higher = less favourable; fluorescence melt of hairpins on a sequencing array, two-state fit
Conditions: sodium 0.088 M
Classification field: enter met for folding enthalpy values not below -30 kcal/mol, not met for values below it.

Q: Could you tell me if the measured folding enthalpy of GCACTACCGAAAGGTTGC (((..(((....)))))) reaches -30 kcal/mol or more?
A: met

Q: Assess whether reported folding enthalpy for GATCAACGTGTTGATC ((((((....)))))) sits at -30 kcal/mol or higher.
A: not met

Q: In plain terms: is recorded folding enthalpy at least -30 kcal/mol for GATCATTACAATGATC ((((((....)))))) ?
A: not met

Q: Please tell me: is the sequence GGTTTCGAAAGAAGGACC ((((((....)))..))) at or over -30 kcal/mol in terms of folding enthalpy?
A: met

Q: folding enthalpy >= -30 kcal/mol for GCGACACTTCGC ((((....)))) ?
A: met

Q: folding enthalpy >= -30 kcal/mol for GCATCCGAAAGGAAATGC ((((((....)))..))) ?
A: met

Q: For this sequence, is measured folding enthalpy -30 kcal/mol or higher? GATCGGAATCCCGATC ((((((....))))))
A: not met

Q: Does the reported folding enthalpy for TGGATGAAAATCCA (((((....))))) fall at or above the -30 kcal/mol mark?
A: met

Q: Is reported folding enthalpy greater than or equal to -30 kcal/mol here: GCCCTTCGAAAGAAAGGC (((.(((....))).)))
A: met

Q: Is reported folding enthalpy greater than or equal to -30 kcal/mol here: GCCGCGGGAAACCACGGC ((((.((....)).))))
A: not met

Q: Kindly determine if folding enthalpy recorded for GATCGTAGGACGATC ((((((...)))))) is above or exactly -30 kcal/mol.
A: not met

Q: Test whether the sequence GATCTACATGTAGATC ((((((....)))))) records folding enthalpy of -30 kcal/mol or higher.
A: not met

Q: Please tell me: is the sequence GATGAGCGAAAGCTATC (((.(((....)))))) at or over -30 kcal/mol in terms of folding enthalpy?
A: met

Q: In plain terms: is recorded folding enthalpy at least -30 kcal/mol for GCAATGCGAAAGCAAGGC ((..(((....)))..)) ?
A: met

Q: Threshold query (folding enthalpy >= -30 kcal/mol) on GGGTACGAAAGTAGACCC ((((((....)))..)))
A: met

Q: Answer whether folding enthalpy of GGTTGTGGAAACACGATC (.(.(((....))).).) is greater than or equal to -30 kcal/mol.
A: met

Q: Assess whether reported folding enthalpy for GGTGAAGGAAACTTCATC (.(((((....))))).) sits at -30 kcal/mol or higher.
A: met

Q: Say whether GCCCCCGAAAGGGTGGGC ((((((....)))..))) shows folding enthalpy of -30 kcal/mol or more.
A: met

Q: Hi team, for GATCCGTGCTCGGATC ((((((....)))))) , is the recorded folding enthalpy at or above -30 kcal/mol?
A: not met

Q: In plain terms: is recorded folding enthalpy at least -30 kcal/mol for GATCGCGAAAGCGGCATC ((((((....)))..))) ?
A: met

Q: Does the reported folding enthalpy for CGGGCGGAAACGCTGCCG ((((((....)))..))) fall at or above the -30 kcal/mol mark?
A: met

Q: Evaluate GGATACGAAAGTAGCTCC ((((((....)))..))) : folding enthalpy at minimum -30 kcal/mol?
A: met

Q: Determine whether measured folding enthalpy meets or exceeds -30 kcal/mol for GGTACAGGAAACTGTACC (((((((....)))))))
A: not met

Q: Textbook exercise: given the entry GCAGGCGAAAGCCTTTGC ((((((....)))..))) , state whether its folding enthalpy is greater than or equal to -30 kcal/mol.
A: met
